Below, each entry is listed with its recorded Residual turnover.
Tested on: HPPD polypeptides (wild-type SEQ ID NO:1 and mutants)
PARTICULARS: total change in signal in presence of 50 μM Cmpd. 1, normalised to that without inhibitor; low substrate concentration

MOLECULE	UNIT_ABBREV	Residual turnover
44 (protein, mutant HPPD polypeptide) MADLYENPMGLMGFEFIEFASPTPGTLEPIFEIMGFTKVATHRSKNVHLYRQGEINLILNNEPNSIASYFAAEHGPSVCGMAFRVKDSQKAYNRALELGAQPIHIDTGPMELNLPAIKGIGGAPLYLIDRFGEGSSIYDIDFVYLEGVERNPVGAGLKVIDHLTHNVYRGRMVYWANFYEKLFNFREARYFDIKGEYTGLTSKAMSAPDGMILIPLNEESSKGAGQIEEFLMQFNGEGIQHVAFLTDDLVKTWDALKKIGMRFMTAPGDEYYEMLEGRLPDHGEPVDQLQARGILLDGSSVEGDKRLLLQIFSETLMGPVFFEFIQRKGDDGFGPDSFKVLFESVERDQVRRGVLTAD	%	78
60 (protein, mutant HPPD polypeptide) MADLYENPMGLMGFEFIEFASPTPGTLEPIFEIMGFTKVATHRSKNVHLYRQGEINLILNNEPNSIASYFAAEHGPSVCGMAFRVKDSQKAYNRALELGAQPIHIDTGPMELNLPAIKGIGGAPLYLIDRFGEGSSIYDIDFVYLEGVERNPVGAGLKVIDHLTHNVYRGRMVYWANFYEKLFNFREARYFDIKGEYTGLTSKAMSAPDGMIRIPLNEESSKGAGQIEEFLMQFNGEGIQHVAFLTDDLVKTWDALKKIGMRFRTAPGDEYYEMLEGRLPDHGEPVDQLQARGILLDGSSVEGDKRLLLQIFSETLMGPVFFEFIQRKGHDGFGPDSFKVLFEQVERDQVRRGVLTAD	%	84
59 (protein, mutant HPPD polypeptide) MADLYENPMGLMGFEFIEFASPTPGTLEPIFEIMGFTKVATHRSKNVHLYRQGEINLILNNEPNSIASYFAAEHGPSVCGMAFRVKDSQKAYNRALELGAQPIHIDTGPMELNLPAIKGIGGAPLYLIDRFGEGSSIYDIDFVYLEGVERNPVGAGLKVIDHLTHNVYRGRMVYWANFYEKLFNFREARYFDIKGEYTGLTSKAMSAPDGMIRIPLNEESSKGAGQIEEFLMQFNGEGIQHVAFLTDDLVKTWDALKKIGMRFMTAPGDEYYEMLEGRLPDHGEPVDQLQARGILLDGSSVEGDKRLLLQIFSETLMGPVFFEFIQRKGDDGFGPDSFKVLFERVERDQVRRGVLTAD	%	46
77 (protein, mutant HPPD polypeptide) MADLYENPMGLMGFEFIEFASPTPGTLEPIFEIMGFTKVATHRSKNVHLYRQGEINLILNNEPNSIASYFAAEHGPSVCGMAFRVKDSQKAYNRALELGAQPIHIDTGPMELNLPAIKGIGGAPLYLIDRFGEGSSIYDIDFVYLEGVERNPVGAGLKVIDHLTHNVYRGRMVYWANFYEKLFNFREARYFDIKGEYTGLTSKAMSAPDGMIRIPLNEESSKGAGQIEEFLMQFNGEGIQHVAFLTDDLVKTWDALKKIGMRFMTAPGDSYYEMLEGRLPDHGEPVDQLQARGILLDGSSVEGDKRLLLQIFSETLMGPVFFEFIQRKGDDGFGPDSFKVLFESVERDQVRRGVLTAD	%	44

Source: patent US10597674B2
